target: recombinant human 11 β-HSD1 (Homo sapiens); assay: 11 β-HSD1 SPA Assay (Scintillation Proximity Assay)
pIC50: −log10 of the molar value.
Recorded pIC50 values for a group of compounds are listed next.

The cases that follow already have their pIC50 on record.
INSERT INTO assay_data (chemical_string, tested_on, measured_value) VALUES
  ('CC(C)(Oc1cc(C(F)(F)F)ccc1F)C(=O)N[C@H]1C[C@H]2CC[C@@H](C1)N2c1ccc(C(N)=O)cn1', 'recombinant human 11 β-HSD1 (Homo sapiens)', '> 6.70'),
  ('CC(C)(Oc1ccc2ccccc2c1)C(=O)N[C@H]1C[C@H]2CC[C@@H](C1)N2c1ccc(C(N)=O)cn1', 'recombinant human 11 β-HSD1 (Homo sapiens)', '> 6.70'),
  ('CC(C)(Oc1cc(OC(C)(C)C(=O)N[C@H]2C[C@H]3CC[C@@H](C2)N3c2ccc(C(=O)NCC(F)(F)F)cn2)c(Cl)cc1Cl)C(N)=O', 'recombinant human 11 β-HSD1 (Homo sapiens)', '> 6.70'),
  ('CC(=O)c1ccc(N2[C@@H]3CC[C@H]2C[C@@H](NC(=O)C(C)(C)Oc2ccc(Cl)cc2Cl)C3)nc1', 'recombinant human 11 β-HSD1 (Homo sapiens)', '> 6.70');

Request: Sample O=C(NC1CC1)c1ccc(N2[C@@H]3CC[C@H]2C[C@@H](NC(=O)C2(c4ccc(Cl)cc4)CCC2)C3)nc1 — what was its pIC50?
Response: > 6.70

Request: // repeat for CC(C)(Oc1ccc(Cl)cc1Cl)C(=O)N[C@H]1C[C@H]2CC[C@@H](C1)N2c1ccc(C(=O)NCC(F)(F)F)cc1Cl and report
Response: > 6.70

Request: // repeat for CC(C)(Oc1ccc(Cl)cc1F)C(=O)N[C@H]1C[C@H]2CC[C@@H](C1)N2c1ccc(C(=O)NCC(F)F)cn1 and report
Response: > 6.70

---

Recorded IC50 values for a group of molecules are listed next.
molecular target: recombinant human 11 β-HSD1 (Homo sapiens, UniProt P28845); assay: 11 β-HSD1 SPA Assay (Scintillation Proximity Assay)
Sequence (P28845 whole entry): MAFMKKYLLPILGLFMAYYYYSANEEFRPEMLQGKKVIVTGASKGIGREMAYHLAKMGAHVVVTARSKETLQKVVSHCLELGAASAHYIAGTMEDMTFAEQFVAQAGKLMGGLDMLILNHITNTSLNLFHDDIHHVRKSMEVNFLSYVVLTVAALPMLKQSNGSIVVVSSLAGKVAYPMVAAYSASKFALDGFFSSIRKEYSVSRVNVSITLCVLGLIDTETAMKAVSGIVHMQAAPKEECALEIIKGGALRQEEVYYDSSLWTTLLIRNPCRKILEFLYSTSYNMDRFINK

INSERT INTO results (molecule, measured_value) VALUES
  ('CC(C)(Oc1ccc(Cl)cc1F)C(=O)N[C@H]1C[C@H]2CC[C@@H](C1)N2c1ccc(S(C)(=O)=O)cc1', '< 200 nM'),
  ('CC(C)(Oc1ncc(Cl)cc1Cl)C(=O)N[C@H]1C[C@H]2CC[C@@H](C1)N2c1ccc(S(C)(=O)=O)cn1', '< 200 nM'),
  ('CC(C)(Oc1ccc(F)cc1F)C(=O)N[C@H]1C[C@H]2CC[C@@H](C1)N2c1ccc(S(C)(=O)=O)cc1', '< 200 nM'),
  ('CC(C)(Oc1cc(C(C)(C)O)c(F)cc1F)C(=O)N[C@H]1C[C@H]2CC[C@@H](C1)N2c1ccc(C(=O)NCC(F)F)cn1', '< 200 nM'),
  ('COCCNC(=O)c1ccc(N2[C@@H]3CC[C@H]2C[C@@H](NC(=O)C(C)(C)Oc2ccc(Cl)cc2)C3)nc1', '< 200 nM'),
  ('O=C(NC1CC1)c1ccc(N2[C@@H]3CC[C@H]2C[C@@H](NC(=O)C2(c4ccc(F)c(F)c4)CC2)C3)nc1', '< 200 nM'),
  ('CC(C)(Oc1ccc(Cl)cc1Cl)C(=O)N[C@H]1C[C@H]2CC[C@@H](C1)N2c1ccc(C(=O)NC2CCOCC2)cn1', '< 200 nM'),
  ('CC(C)(Oc1ccc(Cl)cc1)C(=O)N[C@H]1C[C@H]2CC[C@@H](C1)N2c1cnccn1', '< 200 nM'),
  ('CC(C)(Oc1ccc(Cl)cc1Cl)C(=O)N[C@H]1C[C@H]2CC[C@@H](C1)N2c1cccnc1', '< 200 nM'),
  ('CC(C)(Oc1c(Cl)cc(F)cc1C(F)(F)F)C(=O)N[C@H]1C[C@H]2CC[C@@H](C1)N2c1ccc(S(C)(=O)=O)cn1', '< 200 nM');

Request: Sample CC(C)(Oc1ccc(F)cc1F)C(=O)N[C@H]1C[C@H]2CC[C@@H](C1)N2c1ccc(C(=O)NC2CC2)cn1 — what was its IC50?
Response: < 200 nM

Request: // repeat for CC(C)(Oc1c(F)cc(F)cc1F)C(=O)N[C@H]1C[C@H]2CC[C@@H](C1)N2c1ccc(S(C)(=O)=O)cn1 and report
Response: < 200 nM

Request: // repeat for CC(C)(Oc1ccc(F)c(C(F)(F)F)c1)C(=O)N[C@H]1C[C@H]2CC[C@@H](C1)N2c1ccc(C(=O)NCC(F)(F)F)cn1 and report
Response: < 200 nM

Origin of measurements: patent US8163771B2
